test: in vivo; settings: female, CD1/nude, mouse, 5 MBq (0.5 nmol), total radioactivity, HEK-uPAR xgft
Reported metric: tissue uptake at 24 h

# input molecule: CC(C)C[C@H](NC(=O)[C@H](Cc1ccc(O)cc1)NC(=O)[C@@H](CCCNC(=N)N)NC(=O)[C@@H](CO)NC(=O)[C@H](Cc1ccccc1)NC(=O)[C@H](CC1CCCCC1)NC(=O)[C@H](CC(=O)O)NC(=O)[C@H](CCCCNC(=O)CCOCCOCCOCCOCCNC(=O)c1ccc(CNC(=O)CCCc2ccc(I)cc2)cc1)NC(=O)CN1CCN(CC(=O)O)CCN(CC(=O)O)CCN(CC(=O)O)CC1)C(=O)N[C@@H](Cc1c[nH]c2ccccc12)C(=O)N[C@@H](CO)C(N)=O [[^177Lu]Lu-uPAR-03, metal not drawn] ; wanted: its tissue uptake at 24 h
7.5 %ID/g

----------
test: Biodistribution studies in HEK-uPAR xenograft-bearing nude mice; details: female, CD1/nude (Crl:CD1-Foxn nu), mouse, whole blood, 0.5 nmol, total radioactivity, Blood, 4 h p.i.; 5 MBq, 0.5 nmol; decay-corrected; average ± SD, n=3 animals
Reported metric: tissue uptake at 4 h

What value of tissue uptake at 4 h has been recorded for this entry: CC(C)C[C@H](NC(=O)[C@H](Cc1ccc(O)cc1)NC(=O)[C@@H](CCCNC(=N)N)NC(=O)[C@@H](CO)NC(=O)[C@H](Cc1ccccc1)NC(=O)[C@H](CC1CCCCC1)NC(=O)[C@H](CC(=O)O)NC(=O)CN1CCN(CC(=O)O)CCN(CC(=O)O)CCN(CC(=O)O)CC1)C(=O)N[C@@H](Cc1c[nH]c2ccccc12)C(=O)N[C@@H](CO)C(N)=O [[^177Lu]Lu-DOTA-AE105, metal not drawn, reference compound]
< 0.1 %ID/g

----------
experiment: Stability of the radiopeptides in mouse blood plasma; conditions: mouse, blood plasma
Reported metric: remaining at 1 h, 10 MBq/200 µL (%)
Give just the numeric value; % need not be written.

Consider the compound shown here: CC(C)C[C@H](NC(=O)[C@H](Cc1ccc(O)cc1)NC(=O)[C@@H](CCCNC(=N)N)NC(=O)[C@@H](CO)NC(=O)[C@H](Cc1ccccc1)NC(=O)[C@H](CC1CCCCC1)NC(=O)[C@H](CC(=O)O)NC(=O)CCOCCOCCOCCOCCNC(=O)[C@H](CCCCNC(=O)CCCc1ccc(I)cc1)NC(=O)CN1CCN(CC(=O)O)CCN(CC(=O)O)CCN(CC(=O)O)CC1)C(=O)N[C@@H](Cc1c[nH]c2ccccc12)C(=O)N[C@@H](CO)C(N)=O [[^177Lu]Lu-uPAR-05, metal not drawn] What is its recorded remaining at 1 h, 10 MBq/200 µL?
99

----------
assay: in vivo; details: female, CD1/nude, mouse, 5 MBq (0.5 nmol), total radioactivity, HEK-uPAR xgft
Reported metric: tissue uptake at 4 h

Return reported tissue uptake at 4 h; argument: CC(C)C[C@H](NC(=O)[C@H](Cc1ccc(O)cc1)NC(=O)[C@@H](CCCNC(=N)N)NC(=O)[C@@H](CO)NC(=O)[C@H](Cc1ccccc1)NC(=O)[C@H](CC1CCCCC1)NC(=O)[C@H](CC(=O)O)NC(=O)[C@H](CCCCNC(=O)CCOCCOCCOCCOCCNC(=O)c1ccc(CNC(=O)CCCc2ccc(I)cc2)cc1)NC(=O)CN1CCN(CC(=O)O)CCN(CC(=O)O)CCN(CC(=O)O)CC1)C(=O)N[C@@H](Cc1c[nH]c2ccccc12)C(=O)N[C@@H](CO)C(N)=O [[^177Lu]Lu-uPAR-03, metal not drawn]
4 %ID/g
